target: … (Plasmodium falciparum); assay: BLI, target on sensor
Attribute measured: Kd
Please give the number followed by its unit.

- Binder: "AB-007043 (antibody, V domains shown) VH: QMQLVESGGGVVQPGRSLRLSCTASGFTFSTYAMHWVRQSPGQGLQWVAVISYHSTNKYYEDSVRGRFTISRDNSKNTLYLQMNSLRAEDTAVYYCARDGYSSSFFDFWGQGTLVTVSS VL: DIQMTQSPSTLSASVGDRVAITCRASQSISRWLAWYQQQPGKAPKLLMSGASVLEDGVPSRFSGSGSGTEFTLTISSLQPDDFATYYCQHYNSYFVTFGQGTKVEIK"
  Kd: "4.87 nM"

Record request: Kd value, item AB-007039 (antibody, V domains shown) VH: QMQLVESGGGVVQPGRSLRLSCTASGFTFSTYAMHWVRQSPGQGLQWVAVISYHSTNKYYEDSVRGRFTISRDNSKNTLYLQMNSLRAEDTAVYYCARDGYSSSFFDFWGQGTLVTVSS VL: DIQMTQSPSTLSASVGDRVAITCRASQSISRWLAWYQQQPGKAPKLLMSGASVLESGVPSRFSGSGSGTEFTLTISSLQPDDFATYYCQHYNSYSVTFGQGTKVEIK
7.97 nM

Quick one: Kd of AB-007059 (antibody, V domains shown) VH: QMQLVESGGGVVQPGRSLRLSCTASGFTFSTYAMHWVRQSPGQGLQWVAVISYHSTNKYYEDSVRGRFTISRDNSKNTLYLQMNSLRAEDTAVYYCARDGYSSTFFDFWGQGTLVTVSS VL: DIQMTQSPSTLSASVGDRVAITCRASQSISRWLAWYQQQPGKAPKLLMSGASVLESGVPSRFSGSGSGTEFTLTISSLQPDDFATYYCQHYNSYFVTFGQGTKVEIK ?
17.4 nM
